Where do these numbers come from? They come from patent US8809331B2.

system_under_test: LRRK2 (Homo sapiens, UniProt Q5S007, G2019S)
Construct: purchased Invitrogen PV4882
Sequence (Q5S007 whole entry G2019S): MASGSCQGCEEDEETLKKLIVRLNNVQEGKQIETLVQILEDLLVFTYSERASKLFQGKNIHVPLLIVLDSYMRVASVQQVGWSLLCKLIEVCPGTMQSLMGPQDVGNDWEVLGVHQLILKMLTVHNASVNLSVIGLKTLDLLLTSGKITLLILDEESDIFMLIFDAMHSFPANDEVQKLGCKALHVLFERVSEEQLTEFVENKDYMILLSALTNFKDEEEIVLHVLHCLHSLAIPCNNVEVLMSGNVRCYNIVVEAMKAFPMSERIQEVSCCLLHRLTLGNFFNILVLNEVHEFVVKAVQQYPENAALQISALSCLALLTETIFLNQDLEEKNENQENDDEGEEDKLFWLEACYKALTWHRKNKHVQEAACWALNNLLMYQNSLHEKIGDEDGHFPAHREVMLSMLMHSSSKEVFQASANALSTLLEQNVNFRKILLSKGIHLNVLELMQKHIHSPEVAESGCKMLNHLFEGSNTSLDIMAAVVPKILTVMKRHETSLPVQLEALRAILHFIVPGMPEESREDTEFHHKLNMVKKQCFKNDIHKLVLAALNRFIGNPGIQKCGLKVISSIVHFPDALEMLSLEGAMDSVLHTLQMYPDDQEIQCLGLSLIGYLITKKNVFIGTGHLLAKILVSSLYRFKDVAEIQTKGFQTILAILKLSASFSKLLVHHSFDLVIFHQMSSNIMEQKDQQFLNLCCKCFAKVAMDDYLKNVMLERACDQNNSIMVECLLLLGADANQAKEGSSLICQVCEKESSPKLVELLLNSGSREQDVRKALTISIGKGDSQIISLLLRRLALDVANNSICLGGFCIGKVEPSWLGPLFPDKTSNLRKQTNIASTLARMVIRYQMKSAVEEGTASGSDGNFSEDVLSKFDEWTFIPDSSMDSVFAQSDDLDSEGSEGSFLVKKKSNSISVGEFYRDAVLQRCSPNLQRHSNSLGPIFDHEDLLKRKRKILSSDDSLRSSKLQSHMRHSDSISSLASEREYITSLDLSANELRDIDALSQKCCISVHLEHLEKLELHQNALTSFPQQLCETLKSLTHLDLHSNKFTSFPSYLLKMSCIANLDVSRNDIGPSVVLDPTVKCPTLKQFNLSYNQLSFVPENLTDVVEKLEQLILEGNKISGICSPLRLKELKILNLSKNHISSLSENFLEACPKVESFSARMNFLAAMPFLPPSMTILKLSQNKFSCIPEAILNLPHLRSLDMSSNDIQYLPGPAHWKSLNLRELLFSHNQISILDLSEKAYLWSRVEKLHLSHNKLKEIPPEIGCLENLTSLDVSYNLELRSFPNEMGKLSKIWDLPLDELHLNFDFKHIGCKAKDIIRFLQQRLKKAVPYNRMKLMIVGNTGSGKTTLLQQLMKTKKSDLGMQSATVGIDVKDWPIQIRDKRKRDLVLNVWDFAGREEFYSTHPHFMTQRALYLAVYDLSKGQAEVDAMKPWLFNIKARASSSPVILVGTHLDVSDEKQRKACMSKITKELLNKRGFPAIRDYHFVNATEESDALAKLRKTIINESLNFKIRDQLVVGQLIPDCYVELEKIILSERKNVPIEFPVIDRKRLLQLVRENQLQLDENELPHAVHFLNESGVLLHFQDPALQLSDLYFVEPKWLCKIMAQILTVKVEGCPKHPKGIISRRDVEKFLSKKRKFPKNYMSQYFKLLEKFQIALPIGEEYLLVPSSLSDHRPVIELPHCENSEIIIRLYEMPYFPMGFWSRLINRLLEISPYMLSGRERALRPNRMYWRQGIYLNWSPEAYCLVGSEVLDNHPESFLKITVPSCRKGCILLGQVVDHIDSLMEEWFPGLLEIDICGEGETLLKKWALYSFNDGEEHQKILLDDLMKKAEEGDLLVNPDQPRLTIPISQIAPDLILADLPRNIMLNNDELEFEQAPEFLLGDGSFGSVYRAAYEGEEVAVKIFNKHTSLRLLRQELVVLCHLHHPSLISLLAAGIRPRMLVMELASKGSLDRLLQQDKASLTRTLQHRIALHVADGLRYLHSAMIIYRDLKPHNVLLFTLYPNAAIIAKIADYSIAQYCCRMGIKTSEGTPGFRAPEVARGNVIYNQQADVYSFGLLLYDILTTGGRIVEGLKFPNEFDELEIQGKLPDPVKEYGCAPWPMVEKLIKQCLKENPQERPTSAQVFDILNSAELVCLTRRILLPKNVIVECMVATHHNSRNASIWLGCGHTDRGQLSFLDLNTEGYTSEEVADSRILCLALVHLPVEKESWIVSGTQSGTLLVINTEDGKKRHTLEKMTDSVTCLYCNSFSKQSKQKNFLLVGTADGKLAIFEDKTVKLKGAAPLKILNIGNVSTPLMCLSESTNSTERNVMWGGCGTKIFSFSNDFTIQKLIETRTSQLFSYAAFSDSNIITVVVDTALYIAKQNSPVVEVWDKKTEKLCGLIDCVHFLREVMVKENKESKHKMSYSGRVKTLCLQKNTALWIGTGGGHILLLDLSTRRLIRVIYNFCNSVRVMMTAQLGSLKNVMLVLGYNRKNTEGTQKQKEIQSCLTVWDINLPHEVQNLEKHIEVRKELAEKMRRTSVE
assay_comment: In Vitro LRRK2 LabChip Assay (LRRK2 Ki)
Assay type: biochemical
measurement_context: Table 5 compounds (formula I)
Items are presented alongside their recorded Ki.
endpoint: Ki (nM)

1) CNc1nc(Nc2cc(OC)c(C(=O)N3CCCCC3)cc2OCF)ncc1C(F)(F)F [Compound 110] : 1.64
2) CCNc1nc(Nc2cc(F)c(C(=O)NCC(C)(C)O)cc2OC)ncc1C(F)(F)F [Compound 18] : 0.429
3) CNc1nc(Nc2ccc(C(=O)N3CCOCC3)c(C)c2OC)ncc1C(F)(F)F [Compound 33] : 114
4) COc1cc(C(=O)N2CC[C@H](F)C2)ccc1Nc1ncc(C#N)c(NC2CC2)n1 [Compound 96] : 3.13
5) CNc1nc(Nc2cc(C)c(C(=O)N3CCOCC3)cc2OCC2CC2)ncc1C(F)(F)F [Compound 109] : 1.38
6) O=C(c1cc(Cl)c(Nc2ncc(C(F)(F)F)c(NC3CC3)n2)cc1OCF)N1CCOCC1 [Compound 102] : 708
7) CNc1nc(Nc2cc(OC)c(C(=O)N(C)CC(C)(C)O)cc2F)ncc1C(F)(F)F [Compound 29] : 19.5
8) CCNc1nc(Nc2cc(F)c(C(=O)N3C[C@@H]4C[C@H]3CO4)cc2OC)ncc1C(F)(F)F [Compound 14] : 0.59

###

Items are presented alongside their recorded Ki.
system_under_test: LRRK2 (Homo sapiens, UniProt Q5S007, G2019S)
Construct: purchased Invitrogen PV4882
assay_comment: In Vitro LRRK2 LabChip Assay (LRRK2 Ki)
Format: biochemical
measurement_context: Table 5 compounds (formula I)
Description: In Vitro LRRK2 LabChip Assay This assay was used to determine a compound's potency in inhibiting activity of LRRK2 by determining, Kiapp, IC50, or percent inhibition values. […] The relative amounts of each were quantitated by fluorescence intensity. LRRK2 Ki was determined according to the equation: Y=V0*(1−((x+Ki*(1+S/Km)+Et)/(2*Et)−(((x+Ki*(1+S/Km)+Et)^2−(4*Et*x))^0.5)/(2*Et))). […] The plate was incubated for 2 hours in the dark. […] Results were read on the LabChip 3000. […]
endpoint: Ki (nM)

1. CNc1nc(Nc2cc(OC)c(C(=O)N3CCOCC3)c(OC)c2Cl)ncc1C(F)(F)F : 2.82
2. CNc1nc(Nc2cc(OC)c(C(=O)N3CCN(C4COC4)CC3)cc2Cl)ncc1C(F)(F)F : 4.09
3. COc1cc(C(=O)N2CCOCC2)c(C)cc1Nc1ncc(Cl)c(OC)n1 : 5.55
4. CCNc1nc(Nc2cc(OC)c(C(=O)N(C)CC(C)(C)O)cc2F)ncc1C(F)(F)F : 7.07
5. COc1cc(C(=O)N2CCOCC2)c(F)cc1Nc1ncc(C(F)(F)F)c(NC(C)C)n1 : 3.49
6. CCNc1nc(Nc2cc(F)c(C(=O)N3CC[C@H](F)C3)cc2OC)ncc1C#N : 10.4
7. CNc1nc(Nc2cc(C(F)(F)F)c(C(=O)N3CCOCC3)cc2OC)ncc1C(F)(F)F : 2.53
8. CCNc1nc(Nc2cc(OC)c(C(=O)N3CCC(F)(F)C3)cc2OC)ncc1C(F)(F)F : 1.13
